Study system: Solute carrier organic anion transporter family member 1A4 (OATP1A4) (Rattus norvegicus)
Sequence (O35913 whole entry): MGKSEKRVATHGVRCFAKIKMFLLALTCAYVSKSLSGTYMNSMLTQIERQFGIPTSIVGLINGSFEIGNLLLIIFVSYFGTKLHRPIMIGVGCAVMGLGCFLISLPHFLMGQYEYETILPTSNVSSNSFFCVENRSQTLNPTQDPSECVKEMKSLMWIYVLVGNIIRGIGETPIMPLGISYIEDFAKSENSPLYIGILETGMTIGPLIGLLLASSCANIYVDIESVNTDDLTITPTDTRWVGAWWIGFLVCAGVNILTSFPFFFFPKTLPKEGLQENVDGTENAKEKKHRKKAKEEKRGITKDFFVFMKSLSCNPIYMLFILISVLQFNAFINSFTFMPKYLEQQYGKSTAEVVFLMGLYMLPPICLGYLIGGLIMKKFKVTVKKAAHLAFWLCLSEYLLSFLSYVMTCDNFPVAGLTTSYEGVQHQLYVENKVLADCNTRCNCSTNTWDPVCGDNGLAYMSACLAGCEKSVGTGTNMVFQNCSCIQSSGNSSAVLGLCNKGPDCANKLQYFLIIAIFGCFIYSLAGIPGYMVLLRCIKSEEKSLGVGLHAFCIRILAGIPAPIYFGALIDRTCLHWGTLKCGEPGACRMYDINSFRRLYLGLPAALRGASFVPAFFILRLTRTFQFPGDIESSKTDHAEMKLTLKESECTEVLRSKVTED
Method description: TP_TRANSPORTER: inhibition of E1S uptake (E1S: 0.05 uM, GL: 100 uM) in Xenopus laevis oocytes
Assay type: functional, cell-based, Oocyte
Design: scale not given: the % may be the effect or the level left
Setup conditions: Xenopus laevis oocytes expressing OATP1A4, probe E1S (0.05 uM), read-out: Activity
Readout type: activity at 100 µM (%)
// units = %; emit number, no label

Q: Give recorded activity at 100 µM. `CC1(C)[C@@H](O[C@H]2O[C@H](C(=O)O)[C@@H](O)[C@H](O)[C@H]2O[C@@H]2O[C@H](C(=O)O)[C@@H](O)[C@H](O)[C@H]2O)CC[C@]2(C)[C@H]3C(=O)C=C4[C@@H]5C[C@@](C)(C(=O)O)CC[C@]5(C)CC[C@@]4(C)[C@]3(C)CC[C@@H]12`
A: 47
